FYI, the data here is from the supplement of paper PMC11208160.

experiment: recombinant UMI read abundance after kanamycin selection (control-corrected) (log10(CPM+1)); higher = more efficient recombination; extreme values may be limits of the assay; sequences stand for … in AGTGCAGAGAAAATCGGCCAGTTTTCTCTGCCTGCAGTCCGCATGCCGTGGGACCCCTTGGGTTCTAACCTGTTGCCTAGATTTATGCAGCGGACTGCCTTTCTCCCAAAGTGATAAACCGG…AGGTTGGTTTCACT; site = the 11-nt donor
Respond with Satisfied for recombinant UMI read abundance (log10) values of 0.02 and above, Not satisfied for values below.

Check the entry GGGGTACCATGGACCGGTTTTCCCGGTAATCCGTATTTGCA (site GGGGGACCTTG) : does recombinant UMI read abundance (log10) equal or exceed 0.02?
Not satisfied

Check the entry GTTAGATCATGGACCGGTTTTCCCGGTAATCCGTATTTGGC (site GTTAGAACTGC) : does recombinant UMI read abundance (log10) equal or exceed 0.02?
Not satisfied

Check the entry CACGGCCCATGGACCGGTTTTCCCGGTAATCCGTATTTGGT (site CACGGCCCTAT) : does recombinant UMI read abundance (log10) equal or exceed 0.02?
Satisfied

Check the entry TAGTTGGCATGGACCGGTTTTCCCGGTAATCCGTATTTGGG (site TAGTTGGCTCC) : does recombinant UMI read abundance (log10) equal or exceed 0.02?
Satisfied

Check the entry CGAGGACCATGGACCGGTTTTCCCGGTAATCCGTATTTGGG (site GGAGGACCTCC) : does recombinant UMI read abundance (log10) equal or exceed 0.02?
Satisfied

Check the entry GCTTCCGCATGGACCGGTTTTCCCGGTAATCCGTATTTGTT (site GCTTCCGCTAA) : does recombinant UMI read abundance (log10) equal or exceed 0.02?
Satisfied

Check the entry GGTACGTCATGGACCGGTTTTCCCGGTAATCCGTATTTGTT (site GGAACGTCTAA) : does recombinant UMI read abundance (log10) equal or exceed 0.02?
Satisfied

Check the entry TGTCCACCATGGACCGGTTTTCCCGGTAATCCGTATTTGAC (site TGTACACCTGT) : does recombinant UMI read abundance (log10) equal or exceed 0.02?
Not satisfied

Check the entry CAGGTCACATGGACCGGTTTTCCCGGTAATCCGTATTTGGG (site CACGTCACTCC) : does recombinant UMI read abundance (log10) equal or exceed 0.02?
Not satisfied

====

experiment: recombinant barcode read abundance after kanamycin selection (control-corrected) (log10(CPM+1)); higher = more efficient recombination; sequences stand for … in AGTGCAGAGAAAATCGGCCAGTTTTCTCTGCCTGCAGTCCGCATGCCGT…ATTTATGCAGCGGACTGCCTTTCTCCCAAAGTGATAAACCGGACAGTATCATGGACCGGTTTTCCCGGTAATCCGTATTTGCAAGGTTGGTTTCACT; site = the 11-nt target
Give measured recombinant barcode read abundance (log10) for each item. Keep answers brief.
One number for each entry.

Worked cases, answers included:
TAAGAATCTTGGGTTCTAACCTGTTGCCTCC [TAAGAATCTAG_LTGcore_CT_RTGcore_GG] (site TAAGAATCTAG) (LTG core: CT, RTG core: GG) | 0.142
AGGCGGGCTTGGGTTCTAACCTGTTGCGGTC [AGGCGGGCTCC_LTGcore_CT_RTGcore_GA] (site AGGCGGGCTCC) (LTG core: CT, RTG core: GA) | 0.246
TAAGAATGGTGGGTTCTAACCTGTTGCCTCC [TAAGAATCTAG_LTGcore_GG_RTGcore_GG] (site TAAGAATCTAG) (LTG core: GG, RTG core: GG) | 0.113
GGCTCCCGATGGGTTCTAACCTGTTGCGGTC [GGCTCCCCTCC_LTGcore_GA_RTGcore_GA] (site GGCTCCCCTCC) (LTG core: GA, RTG core: GA) | 0.109
AAACATGCTTGGGTTCTAACCTGTTGCCTGA [AAACATGCTAG_LTGcore_CT_RTGcore_TC] (site AAACATGCTAG) (LTG core: CT, RTG core: TC) | 1.4
GGACACCCTTGGGTTCTAACCTGTTGCCTGT [GGACACCCTAG_LTGcore_CT_RTGcore_AC] (site GGACACCCTAG) (LTG core: CT, RTG core: AC) | 0.442
AAACATGTGTGGGTTCTAACCTGTTGCCTAG [AAACATGCTAG_LTGcore_TG_RTGcore_CT] (site AAACATGCTAG) (LTG core: TG, RTG core: CT) | 0.0752
TGATACCGATGGGTTCTAACCTGTTGCGTTC [TGATACCCTAC_LTGcore_GA_RTGcore_GA] (site TGATACCCTAC) (LTG core: GA, RTG core: GA) | 0.269

For every record below, what is its recombinant barcode read abundance (log10)?
1. CATATTACTTGGGTTCTAACCTGTTGCCTCC [CATATTACTAG_LTGcore_CT_RTGcore_GG] (site CATATTACTAG) (LTG core: CT, RTG core: GG)
2. GGGCGTGGATGGGTTCTAACCTGTTGCCTAG [GGGCGTGCTAG_LTGcore_GA_RTGcore_CT] (site GGGCGTGCTAG) (LTG core: GA, RTG core: CT)
3. ACGGGACTCTGGGTTCTAACCTGTTGCAGAG [ACGGGACCTCT_LTGcore_TC_RTGcore_CT] (site ACGGGACCTCT) (LTG core: TC, RTG core: CT)

1: 0.2; 2: 0.0898; 3: 0.0751

====

assay: recombinant barcode read abundance after kanamycin selection (control-corrected) (log10(CPM+1)); higher = more efficient recombination; sequences stand for … in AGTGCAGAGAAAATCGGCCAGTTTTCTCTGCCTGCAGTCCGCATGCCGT…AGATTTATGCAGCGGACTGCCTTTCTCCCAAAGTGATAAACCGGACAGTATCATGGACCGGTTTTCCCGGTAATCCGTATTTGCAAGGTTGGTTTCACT; site = the 11-nt target
observation type: recombinant barcode read abundance (log10)

Worked cases, answers included:
TTCAAAGCTTGGGTTCTAACCTGTTGCCT (site TTCAAATCTAG) | 0.0721
CTAAGCTCTTGGGTTCTAACCTGTTGCTC (site CTAAGCTCTGA) | 1.03
CATGCGACTTGGGTTCTAACCTGTTGCTG (site CATGCGACTCA) | 0.459
CGTTCGACTTGGGTTCTAACCTGTTGCAT (site CGTTCGACTAT) | 0.133
GTTGACCCTTGGGTTCTAACCTGTTGCCT (site GTAGACCCTCG) | 0.0195
GGACTATCTTGGGTTCTAACCTGTTGCCT (site GGACCATCTAG) | 0.297
ACAAACCCTTGGGTTCTAACCTGTTGCTA (site ACAAACCCTTA) | 0.672
TAACATACTTGGGTTCTAACCTGTTGCAT (site TAACCTACTAT) | 0.139
ACAATATCTTGGGTTCTAACCTGTTGCCT (site ACATGATCTAG) | 0.242
AAGGTCCCTTGGGTTCTAACCTGTTGCCA (site AAGGTTCCTTA) | 0.0911

For every record below, what is its recombinant barcode read abundance (log10)?
1. CAGCCACCTTGGGTTCTAACCTGTTGCCT (site CAGCCACCTAG)
2. TCGAAACCTTGGGTTCTAACCTGTTGCCT (site TCGAAACCTAG)
3. TGTGTCCCTTGGGTTCTAACCTGTTGCCT (site TGGGTCCCTAG)
4. CAGAGCTCTTGGGTTCTAACCTGTTGCCG (site AGACAGACTAC)
5. TAGAACTCTTGGGTTCTAACCTGTTGCCT (site TAGAACTCTAG)
6. GTCAGCCCTTGGGTTCTAACCTGTTGCGG (site GTCAGCCCTCC)

1. 1.4
2. 0.625
3. 0.123
4. 0.078
5. 0.914
6. 2.53

====

experiment: recombinant barcode read abundance after kanamycin selection (control-corrected) (log10(CPM+1)); higher = more efficient recombination; sequences stand for … in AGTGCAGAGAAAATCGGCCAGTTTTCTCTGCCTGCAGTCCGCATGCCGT…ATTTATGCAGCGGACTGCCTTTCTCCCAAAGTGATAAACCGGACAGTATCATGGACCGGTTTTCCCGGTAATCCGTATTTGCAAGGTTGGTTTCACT; site = the 11-nt target
Respond with met for recombinant barcode read abundance (log10) values of 0.1 and above, not met for values below.

Worked examples, 8 sequences total:
TCTACCCGTTGGGTTCTAACCTGTTGCTGAC [TCTACCCCTCA_LTGcore_GT_RTGcore_GT] (site TCTACCCCTCA) (LTG core: GT, RTG core: GT) | not met
GGGAGCCCTTGGGTTCTAACCTGTTGCTGCT [GGGAGCCCTCA_LTGcore_CT_RTGcore_AG] (site GGGAGCCCTCA) (LTG core: CT, RTG core: AG) | met
TCGCGACCTTGGGTTCTAACCTGTTGCCGGC [TCGCGACCTCG_LTGcore_CT_RTGcore_GC] (site TCGCGACCTCG) (LTG core: CT, RTG core: GC) | not met
AGGAGGTGGTGGGTTCTAACCTGTTGCCTAG [AGGAGGTCTAG_LTGcore_GG_RTGcore_CT] (site AGGAGGTCTAG) (LTG core: GG, RTG core: CT) | met
GAGTCCTGTTGGGTTCTAACCTGTTGCCTAG [GAGTCCTCTAG_LTGcore_GT_RTGcore_CT] (site GAGTCCTCTAG) (LTG core: GT, RTG core: CT) | met
GCGGGACCTTGGGTTCTAACCTGTTGCCTCG [GCGGGACCTAG_LTGcore_CT_RTGcore_CG] (site GCGGGACCTAG) (LTG core: CT, RTG core: CG) | met
AAACAGTCTTGGGTTCTAACCTGTTGCCTTA [AAACAGTCTAG_LTGcore_CT_RTGcore_TA] (site AAACAGTCTAG) (LTG core: CT, RTG core: TA) | met
AGTCTTACCTGGGTTCTAACCTGTTGCCAGG [AGTCTTACTTG_LTGcore_CC_RTGcore_CC] (site AGTCTTACTTG) (LTG core: CC, RTG core: CC) | met

Check the entry CGCGCCCTTTGGGTTCTAACCTGTTGCGGAG [CGCGCCCCTCC_LTGcore_TT_RTGcore_CT] (site CGCGCCCCTCC) (LTG core: TT, RTG core: CT) : does recombinant barcode read abundance (log10) equal or exceed 0.1?
met

Check the entry TGTATTCCTTGGGTTCTAACCTGTTGCCTTA [TGTATTCCTAG_LTGcore_CT_RTGcore_TA] (site TGTATTCCTAG) (LTG core: CT, RTG core: TA) : does recombinant barcode read abundance (log10) equal or exceed 0.1?
not met
